Item-by-item account of CC50 at 72 h
assay: Cytotoxicity against human HeLa cells assessed as reduction in cell viability after 72 hrs by CellTiter-Blue1 assay; format: cell-based

- Compound: "C[C@H]1OC(=O)CCC(Cc2ccccc2)NC(=O)[C@@H](NC(=O)c2ncccc2O)[C@@H](C)OC1=O (some centres not stated)"
  Measured parameter: "CC50 at 72 h"
  Assay result: "> 5 µg/mL"

The recorded CC50 at 72 h for C[C@H]1OC(=O)COC(=O)CCC(Cc2ccccc2)NC(=O)[C@H]1NC(=O)OC(C)(C)C (stereo in doubt; form 2) is 5 to 50 µg/mL

###

assay: Antiproliferative activity against HUVEC after 72 hrs by CellTiter-Blue1 assay; assay type: cell-based; conditions: human
Measured parameter: GI50 at 72 h

- Compound: "C[C@H]1OC(=O)CCC(Cc2ccccc2)NC(=O)[C@@H](NC(=O)c2ncccc2O)[C@@H](C)OC1=O (some centres not stated)"
  Measured parameter: "GI50 at 72 h"
  Assay result: "> 5 µg/mL"

Now for the compound whose GI50 at 72 h we want.
Sample C[C@H]1OC(=O)COC(=O)CCC(Cc2ccccc2)NC(=O)[C@H]1NC(=O)OC(C)(C)C (stereo in doubt; form 2) ; GI50 at 72 h observed: 5 to 50 µg/mL
